Parameter: growth. Scope: all listed entries.
Tested on: MALME-3M melanoma
Assay: NCI-60 one-dose screen, 48 h (100 = growth as untreated, 0 = no growth, -100 = all killed)
Details: 10 µM unless noted
Compounds without any hit were thinned out: in the full panel of roughly 83,000, 20% have a hit.
Lab book: enter the figure in %, no units written.

Worked cases, growth given:
[
  {
    "compound": "CCC(C)C1NC(=O)c2nc(oc2-c2ccccc2)-c2csc(n2)-c2csc(n2)-c2nc(oc2C)-c2coc(n2)CNC(=O)C(C(C)CC)NC1=O (centres undefined)",
    "result-unit": "%",
    "number": -84.9
  },
  {
    "compound": "CC1=C(C(=O)Nc2ccc(F)cc2)C(c2ccccc2)C2=C(CC(C)(C)CC2=O)N1 (centres undefined)",
    "result-unit": "%",
    "number": 89.8
  }
]

Task: Given the entry Cc1ccc(Nc2nc(NCCO)c3ccccc3n2)cc1C , what growth was observed with MALME-3M melanoma?
Output: 43.8

Task: Given the entry CCOC(=O)NNc1cccc(Cl)c1 , what growth was observed with MALME-3M melanoma?
Output: 93.6

Task: Given the entry COc1ccc(C2C=C(c3ccc(Cl)cc3)N=C3SC=CN32)cc1 (centres undefined) , what growth was observed with MALME-3M melanoma?
Output: 108

Task: Given the entry Cn1c(=O)c2[nH]c(Cc3ccc4c(c3)OCO4)nc2n(C)c1=O , what growth was observed with MALME-3M melanoma?
Output: 126

Task: Given the entry COc1ccc(C2CC(c3cccc(Nc4ccnc5cc(Cl)ccc45)c3)=NN2c2ccccc2)cc1 (centres undefined) , what growth was observed with MALME-3M melanoma?
Output: 58.7

Task: Given the entry O=C(Nc1ccc(OS(=O)(=O)c2ccc(F)cc2)cc1)C12CC3CC(CC(C3)C1)C2 , what growth was observed with MALME-3M melanoma?
Output: 99.7

Task: Given the entry CC(=O)c1cccc(Nc2ncnc3ccc(NC(=O)c4ccco4)cc23)c1 , what growth was observed with MALME-3M melanoma?
Output: 97.8

Task: Given the entry C/C(=N\OC(=O)Nc1ccccc1)c1ccccc1 , what growth was observed with MALME-3M melanoma?
Output: 107

Task: Given the entry C[C@]12CCc3nc(Nc4ccc(O)cc4)sc3C1=CC[C@@H]1[C@@H]2CC[C@]2(C)/C(=N/NC(N)=S)CC[C@@H]12 , what growth was observed with MALME-3M melanoma?
Output: -60.5

Task: Given the entry Oc1[nH]c2ccccc2c1/C=c1/ccc2c(c1)N=C(c1ccc(C(F)(F)F)cc1)N=2 , what growth was observed with MALME-3M melanoma?
Output: 74.2

Task: Given the entry Cc1ccc(-c2cnc3sc4ccc(Cl)cc4n23)cc1 , what growth was observed with MALME-3M melanoma?
Output: 110

Task: Given the entry Oc1c(C(c2ccc(F)cc2)N2CCCCC2)ccc2cncnc12 (centres undefined) , what growth was observed with MALME-3M melanoma?
Output: 3.63

Task: Given the entry Clc1ncnc2scc(C3COc4ccccc4O3)c12 (centres undefined) , what growth was observed with MALME-3M melanoma?
Output: 58.7

Task: Given the entry O=C(N=Nc1c(Cl)c(O)c2ccccc2c1O)C(=O)Nc1cccc(C(F)(F)F)c1 , what growth was observed with MALME-3M melanoma?
Output: 10.7

Task: Given the entry CC(=O)Nc1nonc1-c1nc2ccccc2n1Cc1ccc(C(C)(C)C)cc1 , what growth was observed with MALME-3M melanoma?
Output: 90.5

Task: Given the entry CC(=O)[C@H]1CC[C@H]2[C@@H]3CC[C@H]4CC=CC[C@]4(C)[C@H]3CC[C@]12C , what growth was observed with MALME-3M melanoma?
Output: 84

Task: Given the entry COc1ccc(NC(=O)/C=C/c2ccc(Cl)c(Cl)c2)cn1 , what growth was observed with MALME-3M melanoma?
Output: 92
